# tested-target: μ-opioid receptor (Rattus norvegicus)
# Construct: the forebrains are homogenized in Tris buffer in a Teflon®-glass homogenizer; from tissue; host or cells: forebrain of male Wistar rats (particulate membrane preparation)
# experiment: Rat brain μ-opioid receptor binding assay ([3H]DAMGO)
# run-parameters: MOR binding Ki
With a cut-off of 0.1 µM, any Ki strictly below it is called label 1; any Ki meeting it or above is called label 0.

CCNC(=O)c1ccc(C(=C2CC3CCC(C2)N3Cc2nccs2)c2cccc(-c3nnn[nH]3)c2)cc1	label 1

Prompt: Please check: Ki for CCNC(=O)c1ccc(C(=C2CC3CCC(C2)N3Cc2ccoc2)c2cc(N)cc(C(=O)O)c2)cc1 , strictly under 0.1 µM or not?
Response: label 0

Prompt: Please indicate whether the reported Ki of CCNC(=O)c1ccc(C(=C2CC3CCC(C2)N3CC=C(C)C)c2cccc3cccnc23)cc1 is strictly below 0.1 µM.
Response: label 0

Prompt: Quick check: Ki of CCNC(=O)c1ccc(C(=C2CC3CCC(C2)N3)c2nnn[nH]2)cc1 [Cpd 151] under 0.1 µM?
Response: label 1

Prompt: I wonder whether CCNC(=O)c1ccc(C(=C2CC3CCC(C2)N3Cc2ncc[nH]2)c2ccc3c(c2)OCO3)cc1 has Ki below 0.1 µM. Can you tell?
Response: label 1

Prompt: Lab log: compare recorded Ki with 0.1 µM; is it strictly lower for CCNC(=O)c1ccc(C(=C2CC3CCC(C2)N3Cc2nccs2)c2ccc(NS(C)(=O)=O)cc2)cc1 ?
Response: label 0

Prompt: Ki strictly < 0.1 µM for this molecule? CCNC(=O)c1ccc(C(=C2C[C@H]3CC[C@@H](C2)N3Cc2ccsc2)c2ccc(CO)cc2)cc1 (single isomer, unassigned)
Response: label 1

Prompt: Given CCN(CC)C(=O)c1ccc(C(=C2CC3CCC(C2)N3C#N)c2ccccc2)cc1 , is recorded Ki strictly lower than 0.1 µM?
Response: label 0

Prompt: Is Ki of CCNC(=O)c1ccc(C=C2CC3CCC(C2)N3Cc2cccnc2)cc1 strictly below 0.1 µM?
Response: label 0

----------
# tested-target: μ-opioid receptor (Rattus norvegicus, UniProt P33535)
# Construct: the forebrains are homogenized in Tris buffer in a Teflon®-glass homogenizer; from tissue; host or cells: forebrain of male Wistar rats (particulate membrane preparation)
# Sequence (P33535 whole entry): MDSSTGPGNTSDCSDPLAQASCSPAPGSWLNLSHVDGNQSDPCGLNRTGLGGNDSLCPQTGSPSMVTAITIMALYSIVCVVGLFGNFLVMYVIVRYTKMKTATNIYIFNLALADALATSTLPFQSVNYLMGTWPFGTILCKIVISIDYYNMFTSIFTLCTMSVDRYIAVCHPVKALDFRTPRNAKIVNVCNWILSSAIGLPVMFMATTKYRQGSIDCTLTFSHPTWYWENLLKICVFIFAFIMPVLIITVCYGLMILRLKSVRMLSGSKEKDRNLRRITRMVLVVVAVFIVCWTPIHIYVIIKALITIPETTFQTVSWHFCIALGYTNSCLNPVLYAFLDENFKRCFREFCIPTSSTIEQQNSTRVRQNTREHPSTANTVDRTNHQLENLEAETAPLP
# experiment: Rat brain μ-opioid receptor binding assay ([3H]DAMGO)
# run-parameters: MOR binding Ki
Classification field. Basis: Ki. Definitions: group 1 = under 10 nM, group 2 = from 10 nM up to 50 nM, group 3 = 50 nM and over

Recorded results for 10 molecules are shown here.
CCNC(=O)c1ccc(C(=C2CC3CCC(C2)N3Cc2nnn[nH]2)c2ccccc2)cc1 [Cpd 90]	group 3
CCNC(=O)c1ccc(C(=C2CC3CCC(C2)N3Cc2[nH]cnc2C)c2ccc3c(c2)OCO3)cc1 [Cpd 11]	group 2
CCNC(=O)c1ccc(C(=C2CC3CCC(C2)N3Cc2nccs2)c2cc(C(=O)O)cc([N+](=O)[O-])c2)cc1 [Cpd 159]	group 2
CCNC(=O)c1ccc(C(=C2CC3CCC(C2)N3Cc2cccs2)c2ccc(S(N)(=O)=O)cc2)cc1 [Cpd 141]	group 1
CCNC(=O)c1ccc(C(=C2CC3CCC(C2)N3Cc2ccoc2)c2cnc3ccccc3c2)cc1 [Cpd 17]	group 2
CCNC(=O)c1ccc(C(=C2CC3CCC(C2)N3Cc2ccsc2)c2ccc(S(N)(=O)=O)cc2)cc1 [Cpd 139]	group 1
CCNC(=O)c1ccc(C(=C2CC3CCC(C2)N3Cc2ccc3c(c2)OCO3)c2cnc3ccccc3c2)cc1 [Cpd 65]	group 2
CCNC(=O)c1ccc(C(=C2CC3CCC(C2)N3CCc2ccccc2)c2cccc(C(=O)O)c2)cc1 [Cpd 83]	group 2
CCNC(=O)c1ccc(C(=C2CC3CCC(C2)N3Cc2ccccn2)c2cccc(C(=O)O)c2)cc1 [Cpd 82]	group 3
CCNC(=O)c1ccc(C(=C2CC3CCC(C2)N3CCc2ccccc2)c2cccc(CN)c2)cc1 [Cpd 158]	group 2

Prompt: Lab note: sort CCNC(=O)c1ccc(C=C2CC3CCC(C2)N3Cc2nccs2)cc1 [Cpd 133] into the matching Ki band.
Response: group 3

Every entry's value here was drawn from patent US20050004163A1.
